This listing pairs compounds with measured EC50.
system: Interferon-α; experiment: Induction of Interferon-α using fresh human PBMCs; type: cell-based; conditions: PBMC, two donors, 24 hr incubation, percentage of 2 μM resiquimod control, read-out: mean pEC50 for induction of IFN-α (converted)

Look over these answered cases.
* CCC[C@H](C)Oc1nc(N)c2[nH]c(=O)n(CCCNCC3CCCO3)c2n1 (some centres unmarked) | < 0.1 µM
* CCC[C@H](C)Oc1nc(N)c2[nH]c(=O)n(CCCNCCC3CCCO3)c2n1 (some centres unmarked) | < 0.1 µM
* CCCCNc1nc(N)c2[nH]c(=O)n(CCCNCCC3CCCO3)c2n1 (centres unmarked) | < 1 µM
* CCC[C@H](C)Oc1nc(N)c2[nH]c(=O)n(CCCNCC3CCOCC3)c2n1 | < 0.1 µM
* CCCCOc1nc(N)c2[nH]c(=O)n(CCCNCCC3CCCCO3)c2n1 (centres unmarked) | < 1 µM
* CCCCOc1nc(N)c2[nH]c(=O)n(CCCNCC3CCCO3)c2n1 (centres unmarked) | < 1 µM
* CCCCOc1nc(N)c2[nH]c(=O)n(CCCNCC3CCOCC3)c2n1 | < 1 µM

Below: the item to evaluate.
Asked: Fill in: EC50 on Interferon-α, entry CCCCOc1nc(N)c2[nH]c(=O)n(CCCNCCC3CCCO3)c2n1 (centres unmarked)
Given back: < 1 µM
